# target: human CCR1 (Homo sapiens, UniProt P32246)
Entries annotated with measured IC50

# compound, IC50
rows = [
    ("Cc1nnc([C@H]2CCCN2C(=O)Nc2c(F)cc(F)cc2F)n1Cc1ccc(Cl)cc1", "< 50 nM"),
    ("Cc1ccc2c(c1)CCCC2NC(=O)N1CCC[C@@H]1c1nnc(C)n1Cc1ccc(Cl)cc1 (stereo partly shown)", "50 to 500 nM"),
    ("Cc1nc(C)c(NC(=O)N2CCC[C@@H]2c2nnc(C)n2Cc2ccc(Cl)cc2)c(C)n1", "< 50 nM"),
    ("Cc1nc(C(F)(F)F)ccc1NC(=O)N1CCC[C@@H]1c1nnc(C)n1Cc1ccc(Cl)cc1", "< 50 nM"),
    ("Cc1nc(C(F)(F)F)ccc1NC(=O)N1C[C@H](O)C[C@@H]1c1nnc(C)n1Cc1ccc(Cl)cc1", "< 50 nM"),
    ("Cc1nc(C(F)(F)F)ccc1CC(=O)N1CCC[C@@H]1c1nnc(C)n1Cc1ccc(Cl)cc1", "< 50 nM"),
    ("CCOC1CCC(NC(=O)N2CCC[C@@H]2c2nnc(C)n2Cc2ccc(Cl)cc2)CC1 (stereo partly shown)", "500 to 5000 nM"),
    ("Cc1nn(C)c(C)c1NC(=O)N1CCC[C@@H]1c1nnc(C)n1Cc1ccc(Cl)cc1", "< 50 nM"),
    ("Cc1onc(-c2ccccc2)c1NC(=O)N1CCC[C@@H]1c1nccn1Cc1ccc(Cl)cc1", "< 50 nM"),
    ("Cc1onc(-c2cccnc2)c1NC(=O)N1CCC[C@@H]1c1nnc(C)n1Cc1ccc(Cl)cc1", "< 50 nM"),
    ("Cc1noc(C)c1NC(=O)N1C[C@@H](O)C[C@@H]1c1nnc(C)n1Cc1ccc(Cl)cc1", "50 to 500 nM"),
    ("Cc1nnc([C@H]2CCCN2C(=O)Cc2ccc(F)c(C(F)(F)F)c2)n1Cc1ccc(Cl)cc1", "50 to 500 nM"),
    ("Cc1nnc([C@H]2CCCN2C(=O)NC2CCCC2)n1Cc1ccc(Cl)cc1", "500 to 5000 nM"),
    ("Cc1noc(C)c1CC(=O)N1CCC[C@@H]1c1nncn1Cc1ccc(Cl)cc1", "50 to 500 nM"),
    ("Cc1nnc([C@H]2CCCN2C(=O)C[C@H](C)c2ccccc2)n1Cc1ccc(Cl)cc1", "50 to 500 nM"),
    ("Cc1onc(-c2ccccc2)c1NC(=O)N1CCC[C@@H]1c1nnnn1Cc1ccc(Cl)cc1", "< 50 nM"),
]

---

The following are reported IC50 results, target or system human CCR1 (Homo sapiens).

# molecule, target, IC50
measured = [
    ("CC[C@H](Nc1c(N2CCC[C@@H]2c2nnc(C)n2Cc2ccc(Cl)cc2)c(=O)c1=O)c1ccc(C(F)(F)F)nc1", "human CCR1 (Homo sapiens)", "0.05 to 0.5 µM"),
    ("Cc1nnc([C@H]2CC(F)CN2C(=O)NCc2ccc(Cl)c(Cl)c2)n1Cc1ccc(Cl)cc1 (stereo partly drawn)", "human CCR1 (Homo sapiens)", "< 0.05 µM"),
    ("Cc1noc([C@H]2CCCN2C(=O)Nc2ccc(C(F)(F)F)cc2)c1Cc1ccc(Cl)cc1", "human CCR1 (Homo sapiens)", "0.5 to 5 µM"),
    ("Cc1nc(C(F)(F)F)ccc1NC(=O)N1CCC[C@@H]1c1nnc(Cl)n1Cc1ccc(Cl)cc1", "human CCR1 (Homo sapiens)", "< 0.05 µM"),
    ("Cc1nnc([C@H]2C[C@@H](O)CN2C(=O)Nc2ccc(F)c(C(F)(F)F)c2)n1Cc1ccc(Cl)cc1", "human CCR1 (Homo sapiens)", "0.5 to 5 µM"),
    ("CC[C@H](NC(=O)N1CCC[C@@H]1c1nnc(C)n1Cc1ccc(F)cc1)c1cc2ccccc2o1", "human CCR1 (Homo sapiens)", "< 0.05 µM"),
    ("Cc1nnc([C@H]2CCCN2C(=O)Nc2ccc(Cl)cc2F)n1Cc1ccc(F)cc1", "human CCR1 (Homo sapiens)", "0.05 to 0.5 µM"),
    ("Cc1nnc([C@H]2CCCN2C(=O)Nc2ccc(Cl)cc2F)n1[C@@H](C)c1ccc(Cl)cc1", "human CCR1 (Homo sapiens)", "0.5 to 5 µM"),
    ("Cc1nc(C(F)(F)F)ccc1NC(=O)N1CC2CC2C1c1nnc(C)n1Cc1ccc(Cl)cc1 (stereo not drawn)", "human CCR1 (Homo sapiens)", "0.05 to 0.5 µM"),
    ("Cc1nnc([C@H]2CCCN2C(=O)NCc2ccccc2-c2cc(C(F)(F)F)nn2C)n1Cc1ccc(Cl)cc1", "human CCR1 (Homo sapiens)", "< 0.05 µM"),
    ("Cc1nnc([C@H]2CCCN2C(=O)N[C@H]2CC(C)(C)Oc3cc(C(F)(F)F)ccc32)n1Cc1ccc(Cl)cc1", "human CCR1 (Homo sapiens)", "< 0.05 µM"),
    ("O=C(Nc1ccc(Cl)cc1F)N1CCC[C@@H]1c1nnsc1Cc1ccc(Cl)cc1", "human CCR1 (Homo sapiens)", "0.05 to 0.5 µM"),
    ("Cc1noc(C)c1NC(=O)N1CC2CC2[C@@H]1c1nnc(C)n1Cc1ccc(Cl)cc1 (stereo partly drawn)", "human CCR1 (Homo sapiens)", "0.05 to 0.5 µM"),
    ("Cc1noc(C)c1CC(=O)N1CCC[C@@H]1c1ncnn1Cc1ccc(Cl)cc1", "human CCR1 (Homo sapiens)", "0.5 to 5 µM"),
    ("CSc1nc(Cl)cc(NC(=O)N2CCC[C@@H]2c2nnc(C)n2Cc2ccc(Cl)cc2)n1", "human CCR1 (Homo sapiens)", "0.5 to 5 µM"),
    ("Cc1nc(C(F)(F)F)ccc1NC(=O)N1CCC[C@@H]1c1nnc(C)n1Cc1ccc(Br)cc1", "human CCR1 (Homo sapiens)", "< 0.05 µM"),
    ("CC(=O)N1CCC[C@H](NC(=O)N2CCC[C@@H]2c2nnc(C)n2Cc2ccc(Cl)cc2)C1", "human CCR1 (Homo sapiens)", "0.05 to 0.5 µM"),
    ("Cc1noc(C)c1NC(=O)N1CCC[C@@H]1c1nnc(C)n1[C@H](C)c1ccc(Cl)cc1", "human CCR1 (Homo sapiens)", "0.05 to 0.5 µM"),
    ("Cc1nnc([C@H]2CCCN2C(=O)Cc2cc(C(F)(F)F)ccc2F)n1Cc1ccc(Cl)cc1", "human CCR1 (Homo sapiens)", "< 0.05 µM"),
    ("N#C/N=C(\\Nc1ccc(C(F)(F)F)cc1)N1CCC[C@@H]1c1nnc(CO)n1Cc1ccc(Cl)cc1", "human CCR1 (Homo sapiens)", "0.5 to 5 µM"),
    ("Cc1ncc(Cc2ccc(Cl)cc2)c([C@H]2CCCN2C(=O)Nc2c(C)cc(C(F)(F)F)cc2C)n1", "human CCR1 (Homo sapiens)", "0.05 to 0.5 µM"),
]

---

Target chain: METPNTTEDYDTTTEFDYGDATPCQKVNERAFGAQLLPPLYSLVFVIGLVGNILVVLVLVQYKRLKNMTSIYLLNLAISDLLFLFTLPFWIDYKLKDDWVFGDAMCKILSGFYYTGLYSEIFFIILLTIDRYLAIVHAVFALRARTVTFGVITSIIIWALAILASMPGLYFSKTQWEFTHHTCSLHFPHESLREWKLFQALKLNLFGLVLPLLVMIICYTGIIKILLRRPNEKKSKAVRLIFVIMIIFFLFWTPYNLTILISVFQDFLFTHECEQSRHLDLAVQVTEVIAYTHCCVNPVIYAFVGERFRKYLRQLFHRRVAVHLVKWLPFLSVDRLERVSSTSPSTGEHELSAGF
endpoint.name: IC50

# smiles.str, endpoint.name, data.value
measured = [
    ("Cc1nnc([C@H]2CCCN2C(=O)Nc2cccc(-c3ccnn3C)c2)n1Cc1ccc(Cl)cc1", "IC50", "500 to 5000 nM"),
    ("CC(=O)N1CCC(CNC(=O)N2CCC[C@@H]2c2nnc(C)n2Cc2ccc(Cl)cc2)CC1", "IC50", "50 to 500 nM"),
    ("Cc1nnc([C@H]2C[C@@H](O)CN2C(=O)NCc2ccc(C(F)(F)F)cc2)n1Cc1ccc(Cl)cc1", "IC50", "50 to 500 nM"),
    ("Cc1ncc(NC(=O)N2CCC[C@@H]2c2nnc(C)n2Cc2ccc(Cl)cc2)c(C)n1", "IC50", "< 50 nM"),
    ("CNC(=O)c1cc(C)ccc1NC(=O)N1CCC[C@@H]1c1nnc(C)n1Cc1ccc(Cl)cc1", "IC50", "50 to 500 nM"),
    ("O=C(Nc1ccc(Cl)cc1F)N1CCC[C@@H]1c1nnc(CO)n1Cc1ccc(Cl)cc1", "IC50", "50 to 500 nM"),
    ("Cc1nnc([C@H]2CCCN2C(=O)Cc2ccc(Cl)cc2F)n1Cc1ccc(Cl)cc1", "IC50", "50 to 500 nM"),
]
